- Assayed System: Recombinant human JAK3 catalytic domain (amino acids 781-1124) (Homo sapiens)
- Sequence (P52333 781-1124): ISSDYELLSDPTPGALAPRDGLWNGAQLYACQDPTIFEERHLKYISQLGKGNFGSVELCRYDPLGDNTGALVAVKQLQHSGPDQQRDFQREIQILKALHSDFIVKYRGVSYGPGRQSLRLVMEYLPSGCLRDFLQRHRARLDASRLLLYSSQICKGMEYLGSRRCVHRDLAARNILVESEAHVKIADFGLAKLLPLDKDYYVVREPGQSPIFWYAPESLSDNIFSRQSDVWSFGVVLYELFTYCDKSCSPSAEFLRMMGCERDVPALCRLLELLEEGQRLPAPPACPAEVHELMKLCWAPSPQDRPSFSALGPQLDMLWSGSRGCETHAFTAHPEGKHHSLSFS
- Experiment Notes: JAK3 inhibition assay
Experimental Readout: IC50 (nM)

Cc1cc(C#N)ncc1Oc1cc(Nc2ccc(S(C)(=O)=O)cn2)c2ncn(C)c2n1 | 1100
C[C@H](N(C)c1cc(Nc2cc(N)ncn2)c2ncn(C)c2n1)C(C)(C)C | 36.7
CCNC(=O)c1ccc(Nc2cc(Oc3cnc(C#N)cc3C)nc3c2ncn3C)nn1 | 2930

(a) CN(c1cc(Nc2cc(N)ncn2)c2ncn(C)c2n1)c1c(F)cc(C#N)cc1C1CC1
(b) Cn1cnc2c(Nc3ccc(S(C)(=O)=O)cn3)cc(OC(C3CC3)C(F)(F)F)nc21 (stereo not drawn)
(c) Cc1cc(C#N)ncc1Oc1cc(Nc2ccc(N3CCC(CO)CC3)cn2)c2ncn(C)c2n1
I would appreciate it if you could sort these 3 compounds by IC50, starting from the smallest number. Returns: the labels arranged in the requested order.
b, a, c

---

- Assayed System: Recombinant human TYK2 catalytic domain (amino acids 871-1187) (Homo sapiens, UniProt P29597)
- Construct: catalytic domain (amino acids 871-1187)
- Sequence (P29597 871-1187): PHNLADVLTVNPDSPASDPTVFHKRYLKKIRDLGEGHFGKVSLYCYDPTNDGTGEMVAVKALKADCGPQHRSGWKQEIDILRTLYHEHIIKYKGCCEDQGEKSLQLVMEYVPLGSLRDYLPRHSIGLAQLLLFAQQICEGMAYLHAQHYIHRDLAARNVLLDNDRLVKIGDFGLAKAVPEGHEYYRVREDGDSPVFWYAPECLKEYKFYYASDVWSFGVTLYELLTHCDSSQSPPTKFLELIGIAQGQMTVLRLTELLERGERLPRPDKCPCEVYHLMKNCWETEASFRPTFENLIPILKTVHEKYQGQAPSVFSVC
- Experiment Notes: TYK2 radioactive assay polyGT substrate; further: 0.1 µM ATP
- Type: biochemical
Experimental Readout: IC50 (nM)

COCCCNc1cc(Nc2cc(Oc3cnc(C#N)cc3C)nc3c2ncn3C)ncn1 [Compound 32] | 6.08

(A) Cc1cc(C#N)ncc1Oc1cc(Nc2ccc(C(=O)N3CC[C@H](N(C)C)C3)cn2)c2ncn(C)c2n1 [Compound 133]
(B) Cc1cc(C#N)ncc1Oc1cc(Nc2ccc(C3(O)COC3)cc2)c2ncn(C)c2n1 [Compound 89]
Which gives the smaller IC50 number: A or B ? The response must carry the label of the picked entry.
A
(A: 6.67 nM, B: 11 nM)

---

- Assayed System: Recombinant human JAK2 (catalytic domain, amino acids 808-1132) (Homo sapiens)
- Construct: catalytic domain, amino acids 808-1132
- Sequence (O60674 808-1132): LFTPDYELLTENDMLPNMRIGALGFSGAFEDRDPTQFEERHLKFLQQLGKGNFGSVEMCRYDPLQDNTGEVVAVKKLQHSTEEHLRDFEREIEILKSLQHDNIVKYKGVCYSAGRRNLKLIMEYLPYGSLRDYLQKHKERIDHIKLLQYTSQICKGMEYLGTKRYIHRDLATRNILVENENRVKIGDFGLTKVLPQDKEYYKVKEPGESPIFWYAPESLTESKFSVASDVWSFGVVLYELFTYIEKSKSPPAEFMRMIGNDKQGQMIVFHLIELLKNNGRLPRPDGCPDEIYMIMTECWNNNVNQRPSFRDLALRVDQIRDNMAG
- Experiment Notes: JAK2 inhibition assay; further: 0.7 µM ATP
- Experimental Context: read-out: JAK2 potency IC50
- Experimental: After 60 min at room temperature, reactions are stopped by adding 20 μL/well of detection mixture (1× detection buffer (Perkin Elmer, catalog number CR97-100) with 0.5 nM Europium-anti-phosphotyrosine (PT66) (Perkin Elmer, catalog number AD0068/AD0069) and 10 mM EDTA). […] Kinase activity is calculated by subtracting the ratio obtained in the presence of a positive control inhibitor (1 μM staurosporine) from the ratio obtained in the presence of vehicle. […]
pIC50: −log10 of the molar value.
Experimental Readout: pIC50

Guide cases for pIC50, answers given:
CC(C)C(Nc1cc(Nc2cc(N)ncn2)c2ncn(C)c2n1)C(F)(F)F (stereo not shown) | 7.79
COCCCN(c1cc(Nc2cc(N)ncn2)c2ncn(C)c2n1)c1cnc(C#N)cc1C | 7.78

(A) CN(c1cc(Nc2cc(N)ncn2)c2ncn(C)c2n1)c1c(F)cc(C#N)cc1C1CC1
(B) Cc1cc(C#N)ncc1Oc1cc(Nc2ccc(N3CCOC[C@@H]3C)cn2)c2ncn(C)c2n1
For the two items A and B , which reports the higher pIC50 value? The response must carry the label of the picked entry.
B
(B: 7.98, A: 7.77)

Values compiled from patent US11564923B2.
